# targetOrTestSystem: T1, pKal catalytic domain Mutant 2 (human, UniProt P03952 391-638, limits assumed)
# T1 construct: domain: catalytic domain; Expressed in Pichia pastoris, purified by IMAC; not shown: His tag fusion
# T1 sequence (P03952 other isoform, or with tags, fused parts or gaps mutant limits assumed): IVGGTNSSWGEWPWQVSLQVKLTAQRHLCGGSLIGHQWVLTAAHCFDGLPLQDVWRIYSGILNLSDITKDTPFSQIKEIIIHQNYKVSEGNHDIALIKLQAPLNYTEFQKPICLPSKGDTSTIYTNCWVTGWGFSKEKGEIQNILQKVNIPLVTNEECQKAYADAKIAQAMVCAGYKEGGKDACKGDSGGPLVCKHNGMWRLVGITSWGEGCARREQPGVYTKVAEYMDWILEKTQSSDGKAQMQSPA
# assayInfo: apparent Ki (Ki,app), enzyme inhibition, pKal catalytic domain Mutant 2
measureName: Ki (nM)
// return numeric value only (unit: nM, not printed)

For record X115-F02 (Fab, V domains shown, also called 559A-X115-F02; 559A-X0115-F02) VH: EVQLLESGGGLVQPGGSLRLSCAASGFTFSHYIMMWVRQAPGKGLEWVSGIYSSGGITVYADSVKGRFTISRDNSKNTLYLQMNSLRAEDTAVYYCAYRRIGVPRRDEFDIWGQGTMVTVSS VL: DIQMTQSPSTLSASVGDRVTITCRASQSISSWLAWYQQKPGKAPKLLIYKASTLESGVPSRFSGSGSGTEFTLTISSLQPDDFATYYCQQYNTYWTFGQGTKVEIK the listed Ki is 5.9

For record X115-A03 (antibody, V domains shown, also called 559A-X115-A03; 559A-X0115-A03) VH: EVQLLESGGGLVQPGGSLRLSCAASGFTFSHYIMMWVRQAPGKGLEWVSGIYSSGGITVYADSVKGRFTISRDNSKNTLYLQMNSLRAEDTAVYYCAWRRIGVPRRDSFDMWGQGTMVTVSS VL: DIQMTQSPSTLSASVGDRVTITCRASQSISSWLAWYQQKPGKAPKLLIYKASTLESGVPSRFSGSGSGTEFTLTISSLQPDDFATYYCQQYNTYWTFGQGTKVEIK the listed Ki is 3.7

For record M35-G04 (antibody, V domains shown, also called 559A-M35-G04; 559A-M0035-G04) VH: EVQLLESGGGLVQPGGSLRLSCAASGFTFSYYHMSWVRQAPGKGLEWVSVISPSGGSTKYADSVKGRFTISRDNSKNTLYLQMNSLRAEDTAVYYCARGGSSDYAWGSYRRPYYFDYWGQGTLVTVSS VL: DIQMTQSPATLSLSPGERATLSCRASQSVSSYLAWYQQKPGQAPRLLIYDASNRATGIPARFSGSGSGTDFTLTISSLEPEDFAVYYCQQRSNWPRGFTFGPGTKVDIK the listed Ki is 1.1

Entry source: patent US9266964
